- runDescription: Reduction of tretazicar by α-hydroxycarbonyl compounds, HPLC initial rate (Example 8)
- Assay type: physicochemical
- conditionDetails: 10 mM test compound, 100 μM tretazicar, 0.1 M sodium bicarbonate buffer, pH 9, 37° C.
measurementKind: Initial Rate of tretazicar reduction, pH 9 (nmoles/min/mL)
Express it in nmoles/min/mL; write the number only.

INSERT INTO results (molecule, unitstring, reportedresult) VALUES
  ('O=C(CO)CO [Dihydroxyacetone (dimer), 1,3-dihydroxy-2-propanone]', 'nmoles/min/mL', 0.92),
  ('O=CC(O)CO (racemic) [D,L-Glyceraldehyde]', 'nmoles/min/mL', 0.53);

Query molecule follows.
Prompt: # Initial Rate of tretazicar reduction, pH 9 lookup, item CC(=O)C(C)O (centres unmarked) [3-hydroxy-2-butanone]
Response: 0.034
